system: rabbit vWF A1 domain (SEQ ID NO 6); assay: 3-point dot blot screen, rabbit vWF A1 domain; assay type: binding; conditions: DNA SELEX 1 aptamers; 100 nM rabbit vWF A1 domain; ratio of fraction bound with target to without
Sequence (as listed by the source): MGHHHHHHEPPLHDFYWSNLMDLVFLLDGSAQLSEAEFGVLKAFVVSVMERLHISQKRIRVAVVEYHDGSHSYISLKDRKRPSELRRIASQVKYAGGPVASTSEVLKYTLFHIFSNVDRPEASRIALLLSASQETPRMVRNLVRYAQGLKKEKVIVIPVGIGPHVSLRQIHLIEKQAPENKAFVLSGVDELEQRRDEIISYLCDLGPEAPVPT
Value kind: Screen- Rabbit/No Protein
Number, no unit, nothing else.

These recorded examples may help you get a feel for the data.
AMX200.D1: DNA SELEX 1 aptamer clone (nucleic acid, DNA, backbone not given here, DNA SELEX 1 aptamer clone) DNA: CTACCTACGATCTGACTAGCGGAATGAGAGTGCTGATGGATTGCTCAGGTCTACTGGCTGCTTACTCTCATGTAGTTCC: 1.06
AMX199.D8: DNA SELEX 1 aptamer clone (nucleic acid, DNA, backbone not given here, DNA SELEX 1 aptamer clone) DNA: CTACCTACGATCTGACTAGCAAGGGGATTGGCTCCGGGTCTGGCGTGCTTGGCATCTTCGGCTTACTCTCATGTAGTTCC: 2.00
AMX200.B1: DNA SELEX 1 aptamer clone (nucleic acid, DNA, backbone not given here, DNA SELEX 1 aptamer clone) DNA: CTACCTACGATCTGACTAGCGGAATGAGAATGCTGATGGATTGCCCAGGTCTGCTGGCTGCTTACTCTCATGTAGTTCC: 3.01
AMX200.B9: DNA SELEX 1 aptamer clone (nucleic acid, DNA, backbone not given here, DNA SELEX 1 aptamer clone) DNA: CTACCTACGATCTGACTAGCGGAATGAGAATGCTGATGGATTGCTCAGGTCTGCTGACTGCTTACTCTCATGTAGTTCC: 2.06

Inquiry: Name the reported Screen- Rabbit/No Protein value associated with the molecule AMX202.A3: DNA SELEX 1 aptamer clone (nucleic acid, DNA, backbone not given here, DNA SELEX 1 aptamer clone) DNA: CTACCTACGATCTGACTAGCGGAATGAGAGCGCTGATGGATTGCTCAGGTCTGCTGGCTGCTTACTCTCATGTAGTTCC
Reply text: 2.10

Inquiry: Same question, AMX199.G5: DNA SELEX 1 aptamer clone (nucleic acid, DNA, backbone not given here, DNA SELEX 1 aptamer clone) DNA: CTACCTACGATCTGACTAGCGAAACACTAGGTTGGTTAGGATTGGTGTGTTCCCGCCCTGCTTACTCTCATGTAGTTCC this time
Reply text: 1.34

Inquiry: Same question, AMX200.E10: DNA SELEX 1 aptamer clone (nucleic acid, DNA, backbone not given here, DNA SELEX 1 aptamer clone) DNA: CTACCTACGATCTGACTAGCAAGGGGATTGGCTCCGGGTCTGGCGTGCTCGGCACCTTTGGCTTACTCTCATGTAGTTCC this time
Reply text: 1.82

Inquiry: Same question, AMX199.A10: DNA SELEX 1 aptamer clone (nucleic acid, DNA, backbone not given here, DNA SELEX 1 aptamer clone) DNA: CTACCTACGATCTGACTAGCGGAACACTAGGTTGGTTAGGATTGGTGTGTTCCCGTTTTGCTTACTCTCATGTAGTTCC this time
Reply text: 1.29

The values you see were collected from patent US7998940B2.
